Test system: G(−) bacterial strains
protocolText: Dilution antimicrobial susceptibility tests (MIC, NCCLS agar dilution / broth dilution)
Format: cell-based, Gram-negative organisms
condition: strain #32 Pseudomonas aeruginosa, Cf-R; unit assumed
Protocol: The MIC (minimum inhibitory concentration) was determined by the NCCLS (National Committee for Clinical Laboratory Standards) methods 2000. Methods for dilution antimicrobial susceptibility testing for bacteria that growth aerobically (M7-A5, vol. 20, No. 2). The agar dilution method for determining antimicrobial susceptibility was carried out using Mueller-Hinton agar. […] The susceptibilities of streptococci were determined by Mueller-Hinton agar supplemented with 5% sheep blood. […]
I'd appreciate it if you could supply MIC values for the items below.
// return numeric value only (unit: µg/mL, not printed)

Exercise: Fill in the blank: the reported MIC of C[C@@H](O)C1C(=O)N2C(C(=O)O)=C(CN3CC[C@H](NS(N)(=O)=O)C3)[C@H](C)C12 (stereo partly drawn) [Compound 72] is ____.
Solution: 4

Exercise: So what does the record say about MIC for C[C@@H](O)C1C(=O)N2C(C(=O)O)=C(CN3CC[C@H](N(C)C)C3)[C@H](C)C12 (stereo partly drawn) [Compound 46] ?
Solution: 4

Exercise: Would you mind telling me what MIC value was observed for C[C@@H](O)C1C(=O)N2C(C(=O)O)=C(CN3CC[C@H](C(N)=O)C3)[C@H](C)C12 (stereo partly drawn) [Compound 12] ?
Solution: 4
